Assay: Solubility in cosmetic solvents (CÉTIOL LC, CRODAMOL DA)
Details: solvent CRODAMOL DA (Diisopropyl adipate)
MEASURED ENDPOINT: Solubility in CRODAMOL DA

Sample answers from the record:
[[record]]
molecule = "CC[Si](/C=C/CCOC(=O)/C(C#N)=C1\\CC(C)(C)c2cc(OC)c(OC)cc21)(CC)CC"
observed_result = "miscible"

[[record]]
molecule = "CCOC(=O)/C(C#N)=C1\\CC(C)(C)c2cc(OC)ccc21 [drawing 31, reference compound]"
observed_result = "0.60%"

[[record]]
molecule = "CCOC(=O)/C(C#N)=C1\\CC(C)(C)c2cc(OC)c(OC)cc21 [Example 1, reference compound]"
observed_result = "1.71%"

[[record]]
molecule = "COc1ccc2c(c1)CC(C)/C2=C(/C#N)C(=O)OCCCC[Si](C)(C)O[Si](C)(C)C (stereo not drawn)"
observed_result = "miscible"

[[record]]
molecule = "COc1cc2c(cc1OC)C(C)(C)C/C2=C(/C#N)C(=O)OCCC[Si](C)(C)O[Si](C)(C)C"
observed_result = "miscible"


Next:
Just so you know, measured Solubility in CRODAMOL DA for C=C(COc1cc2c(cc1OC)/C(=C(\C#N)C(=O)OCC)CC2(C)C)[Si](C)(O[Si](C)(C)C)O[Si](C)(C)C came out at miscible

// data source = patent US6416746B1
